experiment: melting temperature; melt of duplexes; settings: sodium 0.0675 M; strand 1 µM
MEASURED ATTRIBUTE: Tm (°C)
Write the value in °C as a bare number.

Return Tm for the following substance: CGACGTGCCTTATGTGCTG+CAGCACATCCTGCACGTCG ((((((((...((((((((+))))))))...))))))))
47.2

Return Tm for the following substance: CGACGTGCAAAATGTGCTG+CAGCACATTATGCACGTCG (((((((((.(((((((((+))))))))).)))))))))
55.1

Return Tm for the following substance: CGACGTGCACCATGTGCTG+CAGCACATGCGGCACGTCG ((((((((..(((((((((+)))))))))..))))))))
50.4

----------
Would you mind telling me the reported Tm of each entry?
assay: melting temperature; melt of duplexes; settings: sodium 0.0675 M; strand 1 µM
Write the value in °C as a bare number.

Return Tm for the following substance: CGACGTGCGGCATGTGCTG+CAGCACATCGAGCACGTCG ((((((((...((((((((+))))))))...))))))))
53.6

Return Tm for the following substance: CGACGTGCTCTATGTGCTG+CAGCACATGAAGCACGTCG (((((((((..((((((((+))))))))..)))))))))
53

Return Tm for the following substance: CGACGTGCCCAATGTGCTG+CAGCACATCTGGCACGTCG (((((((((..((((((((+))))))))..)))))))))
53.8

----------
Would you mind telling me the reported Tm of each entry?
experiment: melting temperature; melt of duplexes; conditions: sodium 0.0675 M; strand 1 µM
Write the value in °C as a bare number.

Return Tm for the following substance: CGACGTGCAGTATGTGCTG+CAGCACATCGAGCACGTCG ((((((((...((((((((+))))))))...))))))))
50.1

Return Tm for the following substance: CGACGTGCCCAATGTGCTG+CAGCACATCCCGCACGTCG ((((((((...((((((((+))))))))...))))))))
47.9

Return Tm for the following substance: CGACGTGCGTGATGTGCTG+CAGCACATTGGGCACGTCG ((((((((...((((((((+))))))))...))))))))
52.3

Return Tm for the following substance: CGACGTGCACAATGTGCTG+CAGCACATTATGCACGTCG (((((((((.(((((((((+))))))))).)))))))))
52.8

Return Tm for the following substance: CGACGTGCCGTATGTGCTG+CAGCACATCATGCACGTCG ((((((((...((((((((+))))))))...))))))))
48.9

Return Tm for the following substance: CGACGTGCTTTATGTGCTG+CAGCACATGGGGCACGTCG ((((((((...((((((((+))))))))...))))))))
51

Return Tm for the following substance: CGACGTGCTAAATGTGCTG+CAGCACATGTAGCACGTCG ((((((((((.((((((((+)))))))).))))))))))
55.7

Return Tm for the following substance: CGACGTGCTGAATGTGCTG+CAGCACATCAGGCACGTCG ((((((((...((((((((+))))))))...))))))))
53.5

Return Tm for the following substance: CGACGTGCTTAATGTGCTG+CAGCACATGGTGCACGTCG ((((((((...((((((((+))))))))...))))))))
50.3

Return Tm for the following substance: CGACGTGCAAGATGTGCTG+CAGCACATTCCGCACGTCG ((((((((...((((((((+))))))))...))))))))
49.4

Return Tm for the following substance: CGACGTGCACCATGTGCTG+CAGCACATGTAGCACGTCG ((((((((..(((((((((+)))))))))..))))))))
50.9

Return Tm for the following substance: CGACGTGCGTGATGTGCTG+CAGCACATGACGCACGTCG ((((((((((.((((((((+)))))))).))))))))))
57.8

Return Tm for the following substance: CGACGTGCTCCATGTGCTG+CAGCACATGATGCACGTCG ((((((((..(((((((((+)))))))))..))))))))
53.7

Return Tm for the following substance: CGACGTGCTAAATGTGCTG+CAGCACATGAAGCACGTCG (((((((((..((((((((+))))))))..)))))))))
54.6

Return Tm for the following substance: CGACGTGCAGTATGTGCTG+CAGCACATGAGGCACGTCG ((((((((...((((((((+))))))))...))))))))
51.4
